target: human recombinant HDAC6 (Homo sapiens, UniProt Q9UBN7); construct: purchased Calbiochem 382180; test: HDAC6 enzyme activity inhibition assay (HDAC Fluorimetric Drug Discovery Kit); type: biochemical; settings: HDAC6 over HDAC1
Sequence (Q9UBN7 whole entry): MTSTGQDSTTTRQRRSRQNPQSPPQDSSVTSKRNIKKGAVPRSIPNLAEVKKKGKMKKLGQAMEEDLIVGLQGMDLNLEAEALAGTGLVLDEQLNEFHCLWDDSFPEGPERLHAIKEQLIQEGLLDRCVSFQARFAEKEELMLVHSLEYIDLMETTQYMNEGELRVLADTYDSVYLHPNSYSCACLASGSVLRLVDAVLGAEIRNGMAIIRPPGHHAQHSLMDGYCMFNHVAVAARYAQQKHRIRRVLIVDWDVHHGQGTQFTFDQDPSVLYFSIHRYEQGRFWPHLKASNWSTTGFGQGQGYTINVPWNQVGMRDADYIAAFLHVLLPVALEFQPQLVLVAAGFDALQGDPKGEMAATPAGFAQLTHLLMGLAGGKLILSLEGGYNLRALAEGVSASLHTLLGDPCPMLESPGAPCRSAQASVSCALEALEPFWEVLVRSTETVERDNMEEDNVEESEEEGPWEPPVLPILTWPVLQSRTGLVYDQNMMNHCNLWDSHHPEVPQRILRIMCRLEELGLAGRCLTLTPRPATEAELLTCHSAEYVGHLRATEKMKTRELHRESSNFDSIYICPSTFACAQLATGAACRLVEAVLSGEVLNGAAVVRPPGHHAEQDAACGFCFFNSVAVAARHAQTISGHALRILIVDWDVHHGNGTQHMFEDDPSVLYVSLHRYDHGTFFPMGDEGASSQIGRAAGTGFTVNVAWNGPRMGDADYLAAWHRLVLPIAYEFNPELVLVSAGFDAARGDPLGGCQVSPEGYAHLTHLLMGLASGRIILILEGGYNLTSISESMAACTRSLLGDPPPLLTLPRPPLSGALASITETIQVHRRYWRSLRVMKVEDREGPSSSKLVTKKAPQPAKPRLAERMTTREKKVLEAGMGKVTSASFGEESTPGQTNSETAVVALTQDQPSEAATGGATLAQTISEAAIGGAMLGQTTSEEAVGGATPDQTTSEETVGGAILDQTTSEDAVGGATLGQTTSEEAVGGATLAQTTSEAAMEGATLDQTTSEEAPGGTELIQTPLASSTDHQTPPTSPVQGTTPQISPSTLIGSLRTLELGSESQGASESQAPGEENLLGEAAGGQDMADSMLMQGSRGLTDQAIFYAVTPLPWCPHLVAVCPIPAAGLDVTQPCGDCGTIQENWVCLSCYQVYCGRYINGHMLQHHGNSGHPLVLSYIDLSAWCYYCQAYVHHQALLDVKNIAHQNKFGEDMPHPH
QUANTITY: HDAC6 selectivity (fold)
Only the number, expressed in fold, is required.

// worked examples, HDAC6 selectivity (fold) included
>>> experimental_value("O=C(NC1CCCCC1)N(Cc1ccc(-c2nnc(C(F)(F)F)o2)cc1)c1ccccc1 [Compound 21342]")
5
>>> experimental_value("CC1CCN(CCNC(=O)N(Cc2ccc(-c3nnc(C(F)F)o3)cc2F)c2ccccc2)CC1 [Compound 21989]")
80
>>> experimental_value("O=C(N1CCS(=O)(=O)CC1)N(Cc1ccc(-c2nnc(C(F)F)o2)cc1F)c1ccc(CN2CCCCC2)cc1 [Compound 21919]")
28

Please give the measured HDAC6 selectivity (fold) for this molecule: CCN1CCN(C(=O)N(Cc2ccc(-c3nnc(C(F)(F)F)o3)cn2)c2cccc(F)c2)CC1 [Compound 21867]
489

Please give the measured HDAC6 selectivity (fold) for this molecule: O=C(N1CCS(=O)(=O)CC1)N(Cc1ccc(-c2nnc(C(F)F)o2)cc1F)c1ccc(CN2CCN(CC(F)(F)F)CC2)cc1 [Compound 21902]
25

Please give the measured HDAC6 selectivity (fold) for this molecule: CN1CCN(Cc2ccc(N(Cc3ccc(-c4nnc(C(F)F)o4)cc3F)C(=O)N3CCS(=O)(=O)CC3)cc2)CC1 [Compound 21516]
250

Please give the measured HDAC6 selectivity (fold) for this molecule: O=C(N1CCS(=O)(=O)CC1)N(Cc1ccc(-c2nnc(C(F)(F)F)o2)cc1F)c1ccc(-c2ccncc2)cc1 [Compound 21519]
20
